Measured IC50 values are reported for all entries that follow.
Molecular target: EHMT1 (Homo sapiens)
Sequence (Q9H9B1 whole entry, species assumed): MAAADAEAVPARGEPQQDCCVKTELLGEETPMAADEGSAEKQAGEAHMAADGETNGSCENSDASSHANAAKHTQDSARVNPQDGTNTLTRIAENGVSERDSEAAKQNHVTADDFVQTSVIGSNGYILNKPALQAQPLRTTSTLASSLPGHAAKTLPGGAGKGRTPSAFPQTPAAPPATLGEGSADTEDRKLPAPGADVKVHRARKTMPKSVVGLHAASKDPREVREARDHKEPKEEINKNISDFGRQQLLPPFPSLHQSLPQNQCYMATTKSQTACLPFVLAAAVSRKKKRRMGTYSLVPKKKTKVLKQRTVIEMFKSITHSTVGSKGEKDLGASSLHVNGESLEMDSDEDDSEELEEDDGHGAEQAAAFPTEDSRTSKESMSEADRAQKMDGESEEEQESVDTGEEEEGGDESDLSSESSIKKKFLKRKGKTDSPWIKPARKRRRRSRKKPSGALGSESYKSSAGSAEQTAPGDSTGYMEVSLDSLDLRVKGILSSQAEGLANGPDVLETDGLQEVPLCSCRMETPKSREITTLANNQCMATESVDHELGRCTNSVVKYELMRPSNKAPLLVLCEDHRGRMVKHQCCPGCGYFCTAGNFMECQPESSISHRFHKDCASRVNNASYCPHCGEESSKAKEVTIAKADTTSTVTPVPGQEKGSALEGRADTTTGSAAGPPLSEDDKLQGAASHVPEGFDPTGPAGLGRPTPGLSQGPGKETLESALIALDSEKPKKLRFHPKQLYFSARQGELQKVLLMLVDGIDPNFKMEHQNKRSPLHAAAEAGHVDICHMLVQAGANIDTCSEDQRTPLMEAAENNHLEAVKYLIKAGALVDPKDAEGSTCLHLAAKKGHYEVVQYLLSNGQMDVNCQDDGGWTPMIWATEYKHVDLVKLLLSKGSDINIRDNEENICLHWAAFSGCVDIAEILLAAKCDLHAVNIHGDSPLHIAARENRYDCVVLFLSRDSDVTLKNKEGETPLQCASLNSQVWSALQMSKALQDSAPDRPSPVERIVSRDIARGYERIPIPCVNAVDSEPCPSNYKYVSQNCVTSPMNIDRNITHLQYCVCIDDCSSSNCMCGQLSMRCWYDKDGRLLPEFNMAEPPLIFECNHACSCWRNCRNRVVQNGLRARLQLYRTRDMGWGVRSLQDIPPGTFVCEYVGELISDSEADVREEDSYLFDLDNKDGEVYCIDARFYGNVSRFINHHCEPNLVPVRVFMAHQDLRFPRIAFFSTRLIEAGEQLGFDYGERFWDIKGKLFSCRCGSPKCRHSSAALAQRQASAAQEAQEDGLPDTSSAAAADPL
Experiment: EHMT1 enzyme assay on peptide substrate (EHMT1 PEP)
Assay type: biochemical
Conditions: read-out: EHMT1 PEP (IC50 μM)

### Prompt Would you mind telling me what IC50 value was observed for COc1cnc(Nc2nc(C)cc3[nH]ccc23)cc1OC[C@H]1CCN(C2CC2)C1 [Compound 494a] ?
### Response < 0.1 µM

### Prompt Would you mind telling me what IC50 value was observed for `CNc1cc(C)nc(Nc2ccc(OC)c(OC[C@@H]3CN(C)C[C@@H]3O)c2)n1` ?
### Response < 0.1 µM

### Prompt Would you mind telling me what IC50 value was observed for `CNc1cc(C)nc(Nc2cnc(OC)c(OC[C@H]3CCN(C4CC4)C3)c2)n1` ?
### Response < 0.1 µM

### Prompt Would you mind telling me what IC50 value was observed for `COc1ncc(Nc2nc(C)cc(NCC3CCOCC3)n2)cc1OCCCN1CCCC1` ?
### Response < 0.1 µM

### Prompt Would you mind telling me what IC50 value was observed for `COc1ncc(Nc2nc(C)cc(NC(C)C)n2)cc1OCCCN1CCCC1` ?
### Response 0.1 to 1 µM

### Prompt Would you mind telling me what IC50 value was observed for COc1ccc(Nc2nc(C)cc(NCC3CCOCC3)n2)cc1OCC1CCN(C2CC2)C1 (stereo not shown) ?
### Response < 0.1 µM

### Prompt Would you mind telling me what IC50 value was observed for `CCN1CC[C@@H](COc2cc(Nc3nc(C)cc(NC(C)C)n3)ccc2OC)C1` ?
### Response 0.1 to 1 µM

### Prompt Would you mind telling me what IC50 value was observed for CNc1cc(Nc2cc(OCCCN3CC4CC4C3)c(OC)cn2)nc(C)c1F (stereo not shown) ?
### Response < 0.1 µM

### Prompt Would you mind telling me what IC50 value was observed for `CNc1cc(C)nc(Nc2ccc(OC)c(OC[C@H]3C[C@@H](N(C)C)C3)c2)n1` ?
### Response 0.1 to 1 µM

### Prompt Would you mind telling me what IC50 value was observed for `CCc1ccc(Nc2nc(C)cc(NC)n2)cc1OCCCN1CCCC1` ?
### Response 0.1 to 1 µM

### Prompt Would you mind telling me what IC50 value was observed for `CNc1cc(C)nc(Nc2ccc(OC)c(OCCCN3CCC3)c2)n1` ?
### Response < 0.1 µM

### Prompt Would you mind telling me what IC50 value was observed for COc1cnc(Nc2nccc3[nH]ccc23)cc1OCCCN1CC2CC2C1 (stereo not shown) ?
### Response < 0.1 µM

### Prompt Would you mind telling me what IC50 value was observed for `COc1ccc(Nc2nc(C)cc3[nH]ccc23)cc1OCCCN1CCCC1` ?
### Response > 10 µM

---

Molecular target: UniProt:Q9H9B1
Assay: EHMT1 enzyme assay on peptide substrate (EHMT1 PEP)
Assay type: biochemical
Settings: Table VI; read-out: EHMT1 PEP IC50
measure-name: IC50

Worked cases, answers included:
[
  {
    "compound": "CNC[C@@H](COc1cc(Nc2nccc(NC)n2)ccc1OC)OC [Compound 922]",
    "assay-system": "UniProt:Q9H9B1",
    "measure-name": "IC50",
    "experimental-result": "1000 to 10000 nM"
  },
  {
    "compound": "CCS(=O)(=O)N1CCC(c2cc(C)nc3cc(OCCCN4CCCC4)c(OC)cc23)CC1 [Compound 836]",
    "assay-system": "UniProt:Q9H9B1",
    "measure-name": "IC50",
    "experimental-result": "100 to 1000 nM"
  },
  {
    "compound": "CNCCNC(C)c1cc(Nc2nc(C)cc(NC)n2)ccc1OC (stereo not shown) [Compound 1036]",
    "assay-system": "UniProt:Q9H9B1",
    "measure-name": "IC50",
    "experimental-result": "100 to 1000 nM"
  },
  {
    "compound": "CNc1cc(C)nc(Nc2ccc(OC)c(CN[C@H]3CCNC3)c2)n1 [Compound 813]",
    "assay-system": "UniProt:Q9H9B1",
    "measure-name": "IC50",
    "experimental-result": "100 to 1000 nM"
  },
  {
    "compound": "CNc1ccnc(Nc2ccc(OC)c(OC[C@@H](C)CN3CCC3)c2)n1 [Compound 943]",
    "assay-system": "UniProt:Q9H9B1",
    "measure-name": "IC50",
    "experimental-result": "1000 to 10000 nM"
  }
]

### Prompt Would you mind telling me what IC50 value was observed for CNc1cc(C)nc(Nc2cc(OCCCN3CCCC3)c3[nH]nnc3c2)n1 [Compound 624] ?
### Response < 100 nM

### Prompt Would you mind telling me what IC50 value was observed for CCc1nc(NC2CCNCC2)ncc1OCC1CN(C(C)C)C1 [Compound 631] ?
### Response > 10000 nM

### Prompt Would you mind telling me what IC50 value was observed for CNc1cc(C)nc(Nc2ccc(OC)c(OC[C@H](O)CN3CC(C)C3)c2)n1 [Compound 985] ?
### Response < 100 nM

### Prompt Would you mind telling me what IC50 value was observed for COc1cc2cc(F)c(C)nc2cc1OCCCN1CCCC1 [Compound 896] ?
### Response > 10000 nM

### Prompt Would you mind telling me what IC50 value was observed for CNc1nc(C2CCN(C3CCOC3)CC2)c2cc(OC)c(OCCCN3CCCC3)cc2n1 (stereo not shown) [Compound 759] ?
### Response < 100 nM

### Prompt Would you mind telling me what IC50 value was observed for CCN1CC(COc2cc(Nc3nc(C)cc4[nH]ccc34)ncc2OC)C1 [Compound 613] ?
### Response < 100 nM

### Prompt Would you mind telling me what IC50 value was observed for CNc1nc(C2CCN(CCOC)CC2)c2cc(OC)c(OCCCN3CCCC3)cc2n1 [Compound 740] ?
### Response < 100 nM

### Prompt Would you mind telling me what IC50 value was observed for CNc1cc(C)c2cc(OC)c(OCCCN3CCCC3)cc2n1 [Compound 736] ?
### Response < 100 nM

### Prompt Would you mind telling me what IC50 value was observed for CNc1ccnc(Nc2cnc(OC)c(OCCCN3CCC3)c2)n1 [Compound 914] ?
### Response < 100 nM

### Prompt Would you mind telling me what IC50 value was observed for CNc1cc(C)nc(Nc2cnc(OC)c(OCCCN3CCC3)c2)n1 [Compound 949] ?
### Response < 100 nM

### Prompt Would you mind telling me what IC50 value was observed for COc1cc2c(C3CCOCC3)cc(-c3cn[nH]c3)nc2cc1OCCCN1CCCC1 [Compound 679] ?
### Response 1000 to 10000 nM
